The reported measurements were obtained from ChEMBL document CHEMBL5303304.

Test system: U2OS
protocol description: Incucyte cell viability with U2OS; further: unitless GR value; below 1 slowed growth and below 0 cell loss
Assay type: toxicity, cell-based
measurement setup: human, 18 h, 10 µM, compound concentration 10 uM, replicate number 2
readout: Growth Rate

compound=COC(=O)Nc1nc2c(s1)-c1c(c(-c3cccnc3)nn1-c1ccc(C3(N(C)C)CC3)cc1)CC2.Cl.Cl readout="Growth Rate" observed_value=0.74
compound="C[C@H](C[C@H](N)C(=O)O)C(=O)O [2S,4R-4-METHYLGLUTAMATE]" readout="Growth Rate" observed_value=0.82
compound=Nc1nc(-c2nn(Cc3ccccc3F)c3ncccc23)ncc1C1CC1 readout="Growth Rate" observed_value=0.87
compound=COc1cc(N[C@@H]2CCCC[C@]2(O)C(F)(F)F)ccc1F readout="Growth Rate" observed_value=0.96
compound=CCNC1=N[C@@H]2[C@@H](O)[C@H](O)[C@@H](CO)O[C@@H]2S1 readout="Growth Rate" observed_value=0.81
compound=O=C1NC(Nc2ccccc2)=N/C1=C\c1ccc2c(c1)OCO2 readout="Growth Rate" observed_value=0.66
compound=CC(=O)c1ccc2c(c1)/C(=C(/Nc1cccc(C#N)c1)c1ccc3c(c1)OCCO3)C(=O)N2 readout="Growth Rate" observed_value=0.5
compound=Oc1cccc(Nc2ccnc3[nH]c4ccccc4c23)c1 readout="Growth Rate" observed_value=0.7
compound=O=C(O)CNC(=O)c1c(O)c2ccccc2n(Cc2ccccc2)c1=O readout="Growth Rate" observed_value=0.9
compound=COc1ccccc1-c1cc(Nc2cccc(CS(N)(=O)=O)c2)ncn1 readout="Growth Rate" observed_value=0.43
compound=CC(C)Oc1ccc(-c2cnc3c(-c4ccnc5ccccc45)cnn3c2)cc1 readout="Growth Rate" observed_value=0.79
compound=Nc1ccc(S(=O)(=O)Nc2ccnn2-c2ccccc2)cc1 readout="Growth Rate" observed_value=0.88
compound=CC(C)c1cnn2c(NCc3ccccc3)cc(NCCCCCCN)nc12.Cl readout="Growth Rate" observed_value=0.76
compound=Cc1cccc(F)c1C(=O)Nc1cnc(-c2cc3c(cc2Cl)OC(F)(F)O3)cn1 readout="Growth Rate" observed_value=0.9
compound=Cc1c(-c2c(F)cc(C(N)=O)c3[nH]c4c(c23)CC[C@H](C(C)(C)O)C4)cccc1-n1c(=O)c2cccc(F)c2n(C)c1=O readout="Growth Rate" observed_value=0.66
compound=O=C1N=C(NCc2cccs2)S/C1=C\c1ccc2ncccc2c1 readout="Growth Rate" observed_value=0.67
compound=CC(C)N1CCN(Cc2cnc(-c3cc(-c4cccc5[nH]ccc45)cc4[nH]ncc34)o2)CC1 readout="Growth Rate" observed_value=0.64
compound=C1CCC(NC2CCCCC2)CC1.Cc1cc(Cl)ccc1S(=O)(=O)NC[C@H]1C2CCC(CC2)[C@@H]1/C=C\CCCC(=O)O readout="Growth Rate" observed_value=0.99
compound=CCc1cncnc1N1CCN(Cc2nc3cc(C(F)(F)F)ccc3[nH]2)CC1 readout="Growth Rate" observed_value=0.57
compound=Cc1nc2c(cc1F)c(-c1nnc3c(n1)NC(=O)C3(C)C)nn2Cc1cccc(F)c1F readout="Growth Rate" observed_value=0.95
compound="CCC(=O)O[C@]1(C(=O)CCl)[C@@H](C)C[C@H]2[C@@H]3CCC4=CC(=O)C=C[C@]4(C)[C@@]3(F)[C@@H](O)C[C@@]21C [CLOBETASOL PROPIONATE]" readout="Growth Rate" observed_value=0.88
compound=O=C(NCC1(N2CCN(c3ccccc3)CC2)CCOCC1)c1cccnc1Sc1ccccc1 readout="Growth Rate" observed_value=0.92
compound=CC(C)(C)c1cc(C(C)(C)C)c(NC(=O)c2c[nH]c3ccccc3c2=O)cc1O readout="Growth Rate" observed_value=0.92
compound=O=C(Nc1c(-c2cccs2)nc2ccc(Cl)cn12)c1ccc(Cl)cc1 readout="Growth Rate" observed_value=0.75
compound=Cc1cc(Nc2cc(N)ncn2)c(=O)n2c1C(=O)NC21CCCCC1 readout="Growth Rate" observed_value=0.92
compound=Cc1cn(CCN2CCN(c3ccccc3-c3cc(C#N)cc(C(=O)NCCCN4CCCC4)c3)CC2)c2ccccc12 readout="Growth Rate" observed_value=-0.77
compound=COc1cc(-c2cncc(-c3ccc(N4CCN(C(C)C)CC4)cc3)c2C)cc(F)c1C(=O)N1CCCC1 readout="Growth Rate" observed_value=0.99
compound=c1ccc2c(-c3coc4cc(-c5ccc(N6CCNCC6)cc5)cnc34)ccnc2c1 readout="Growth Rate" observed_value=-0.38
compound=CCN(CC)C/C=C/C(=O)Nc1cc2c(Nc3ccc(F)c(Cl)c3)ncnc2cc1OCC1CC1 readout="Growth Rate" observed_value=0.06
compound=Cc1cc(C)cc(C(=O)NOCCCCCC(=O)NO)c1 readout="Growth Rate" observed_value=0.5
compound=O=C(Nc1ccc(OC(F)(F)Cl)cc1)c1cnc(N2CC[C@@H](O)C2)c(-c2ccn[nH]2)c1 readout="Growth Rate" observed_value=0.82
compound=Cc1csc(-c2nnc(Nc3ccc(Oc4ncccc4-c4ccnc(N)n4)cc3)c3ccccc23)c1 readout="Growth Rate" observed_value=0.17
compound=O=C1NCCSc2c1sc1ccc(O)cc21 readout="Growth Rate" observed_value=0.31
compound=CN1CCC[C@H]1c1cccnc1 readout="Growth Rate" observed_value=0.77
compound=CS(C)(=O)=Nc1ccc(-c2ccc(-c3nc4[nH]c(O[C@@H]5CO[C@H]6[C@@H]5OC[C@H]6O)nc4cc3Cl)cc2)cc1 readout="Growth Rate" observed_value=0.97
compound=CC(C)NC(=O)[C@H]1CCC[C@H]1Nc1nc(Nc2ccc(CN(C)C)cc2)ncc1Br.Cl readout="Growth Rate" observed_value=0.24
compound=c1ccc(Cn2c(N3CCNCC3)nc3ccccc32)cc1 readout="Growth Rate" observed_value=0.94
